- System: ACHN
- Test protocol: NCI tumour cell line growth inhibition, 48 h
Active and inactive are the calls of the source. Cut-off read from the data, not from the text of the source: active = GI50 up to about 1.1 µM and inactive = higher.
Quantity: GI50

# count of solved cases: 5
{"columns": ["Molecule", "GI50"],
 "data": [
  ["CC1=CC(=O)NCCN1C", "> 100 µM (inactive)"],
  ["CCc1nc(N)nc(N)c1-c1ccc(Cl)c(Cl)c1 [ETOPRINE]", "2.86 µM (inactive)"],
  ["CC1(C)C2CCC3(OCCO3)C1C1OC12 (configuration not stated)", "> 100 µM (inactive)"],
  ["O=C1c2ccccc2C(=O)c2cc(/N=N/c3c(O)ccc4ccccc34)ccc21", "> 100 µM (inactive)"],
  ["O=C1c2sc(-c3ccc(F)cc3)cc2-n2cccc21", "29.9 µM (inactive)"]
]}

Enquiry: # returns recorded GI50 (system: ACHN) for COc1ccc(C(=O)O)c(Cc2cccc3ccccc23)c1
Return: > 100 µM (inactive)

Enquiry: Further, for N=C(c1ccc2ccccc2c1)c1ccccc1Cc1ccccc1 ?
Return: 45.5 µM (inactive)

Enquiry: Further, for CC(C)(Br)C(Br)CCC1(C2CO2)CO1 (configuration not stated) ?
Return: > 5 µM (inactive)

Enquiry: Further, for COC(=O)[C@@]1(Cc2ccc(OC(C)=O)cc2)Cc2cc3ccccc3n2N1 ?
Return: 58.1 µM (inactive)

Enquiry: Further, for O=c1[nH]c2cc(C(F)(F)F)ccc2nc1C(F)(F)F ?
Return: 37.3 µM (inactive)

Enquiry: Further, for O=c1cc(-c2ccccc2)[nH]c2cccc(S)c12 ?
Return: 0.804 µM (active)

Enquiry: Further, for CC1=C2C(=C[C@@](C)(CO)[C@@H]2O)C(=O)[C@](C)(O)C12CC2 [ILLUDIN] ?
Return: 0.00849 µM (active)

* * *

- Tested on: IGROV-1
- Test protocol: NCI tumour cell line growth inhibition, 48 h
Calls of active or inactive are those of the source. Cut-off read from the data, not from the text of the source: active = GI50 up to about 1.1 µM and inactive = higher.
GI50 listing for selected compounds.

# count of solved cases: 4
{"columns": ["Compound", "GI50"],
 "data": [
  ["CC(N)CC(=O)O (stereo unspecified)", "> 5000 µM (inactive)"],
  ["O=C(OC(=C(c1ccccc1)c1ccccc1)N1CCCC1=S)C(c1ccccc1)c1ccccc1", "> 10 µM (inactive)"],
  ["O=C1C=C(Br)c2c(-c3ccccc3)oc3cccc1c23", "32.3 µM (inactive)"],
  ["COc1ccc(-c2cc(=O)c3c(OC)c(O)c(OC)cc3o2)cc1", "33 µM (inactive)"]
]}

Enquiry: Could you tell me which GI50 is on file for CN(C)C(=S)N=C(Nc1ccccc1)Nc1ccccc1 ?
Return: > 100 µM (inactive)

Enquiry: Further, for O=C1CSC(c2ccc(Cl)cc2Cl)N1c1ccc(Oc2ccc(Cl)cc2)c(Cl)c1 (stereo unspecified) ?
Return: 28.1 µM (inactive)

* * *

- System: NCI-H226
- Test protocol: NCI tumour cell line growth inhibition, 48 h
Activity calls are given as the source filed them. Cut-off read from the data, not from the text of the source: active = GI50 up to about 1.1 µM and inactive = higher.
Answer with one of the outcomes given here: active, inactive

Illustrative cases are given below, each with its answer.
{"columns": ["Molecule", "Target of assay", "Group label"],
 "data": [
  ["Cc1c2c(n(CCN(C)C)c1C)NN=C(C#N)S2(=O)=O", "NCI-H226", "inactive"],
  ["CC1=C2C(=C[C@@](C)(CO)[C@@H]2O)C(=O)[C@](C)(O)C12CC2 [ILLUDIN]", "NCI-H226", "active"],
  ["O=C1OC(c2ccc(O)cc2)(c2ccc(O)cc2)c2ccc(Cl)c3cccc1c23.O=C1OC(c2ccc(O)cc2)(c2ccc(O)cc2)c2cccc3c(Cl)ccc1c23", "NCI-H226", "inactive"]
]}

# input for lookup
Enquiry: Please let me know the test result on file for CCOCN1COCN/C1=N/C#N .
Return: inactive

* * *

- Test system: SF-539
- Test protocol: NCI tumour cell line growth inhibition, 48 h
Activity calls are given as the source filed them. No stated cut-off is given here; in the data, active = GI50 up to about 1.1 µM and inactive = higher.
Answer with one of the outcomes given here: active, inactive

Illustrative cases are given below, each with its answer.
{"columns": ["Compound", "Group label"],
 "data": [
  ["Cc1c2cc[n+](C)cc2c(C)c2c1[nH]c1ccc(Cl)cc12", "active"],
  ["COC(=O)c1c(O)ccc2c1c1c(n2Cc2ccccn2)C(=O)c2ccccc2C1=O", "inactive"],
  ["COC(=O)[C@]12CC[C@H]3CN(C(=O)OCc4ccccc4)[C@H]([C@H]31)[C@H](c1ccco1)N2", "inactive"]
]}

# input for lookup
Enquiry: Please let me know the test result on file for CCN(CC)C(=O)c1ccc(C)c(/N=N/N(C)C)c1 .
Return: inactive

* * *

- System: EKVX
- Test protocol: NCI tumour cell line growth inhibition, 48 h
Calls of active or inactive are those of the source. Rule as the data show it: active = GI50 up to about 1.1 µM and inactive = higher.
Answer with one of the outcomes given here: active, inactive

{"columns": ["Compound", "Group label"],
 "data": [
  ["N#Cc1ccc(-c2nc3c(N)nc(-c4ccccc4)nc3o2)cc1", "inactive"]
]}

Enquiry: Please let me know the test result on file for CC(=O)[O-].[Zn+].c1ccc(/C(=N\Nc2ccccn2)c2ccccn2)cc1 .
Return: active

Enquiry: Further, for Cc1cc(S(=O)(=O)Nc2nncn2-c2ccc(Cl)cc2)c(S)cc1Cl ?
Return: inactive

Enquiry: Further, for CN(NC(=O)/C(=C\c1ccco1)NC(=O)c1ccccc1)c1cn[nH]c(=O)c1Cl ?
Return: inactive

Enquiry: Further, for CCCC(=O)Oc1ccc2c(C)cc(=O)oc2c1OC(=O)CCC ?
Return: inactive

Enquiry: Further, for CSC1NC(c2ccc(Cl)cc2)=C(C#N)C(=O)N1C1OCC(OC(C)=O)C(OC(C)=O)C1OC(C)=O (stereo unspecified) ?
Return: inactive

* * *

- Test system: MCF7
- Test protocol: NCI tumour cell line growth inhibition, 48 h
The source made the active and inactive calls. Rule as the data show it: active = GI50 up to about 1.1 µM and inactive = higher.
Answer with one of the outcomes given here: active, inactive

Illustrative cases are given below, each with its answer.
{"columns": ["Molecule", "Group label"],
 "data": [
  ["Cc1ccc(Nc2nnc(-c3ccc4c(c3)OCO4)o2)c(C)c1", "inactive"],
  ["COC1CC(=O)C2C(=O)N(c3ccccc3)C(=O)C23C(C(=O)c2ccccc2)=C(C)NC13O (configuration not stated)", "inactive"],
  ["Clc1ccc(C2=C(c3ccccc3)C(c3ccc(Cl)cc3)N3C(=N[C@H]4CCCC[C@@H]43)N2)cc1 (some centres not stated)", "inactive"],
  ["CO/C=C(/C(=O)OC)c1ccccc1[C@@H]1CC1c1cccc(F)c1 (some centres not stated)", "inactive"],
  ["O=C1NC(=O)/C(=C/c2ccc(S(=O)(=O)N/N=C\\C(O)C(O)C(O)C(O)CO)cc2)N1 (configuration not stated)", "inactive"]
]}

Enquiry: Please let me know the test result on file for O=C(O)C(Cc1ccccc1)Cc1ccccc1 .
Return: inactive

Enquiry: Further, for Oc1ccccc1C1C=C(c2ccccc2)NC(N2CCCCC2)=C1c1nc2ccccc2[nH]1 (configuration not stated) ?
Return: inactive

* * *

- Test system: HCT-116
- Test protocol: NCI tumour cell line growth inhibition, 48 h
Activity calls are given as the source filed them. Cut-off read from the data, not from the text of the source: active = GI50 up to about 1.1 µM and inactive = higher.
Answer with one of the outcomes given here: active, inactive

Illustrative cases are given below, each with its answer.
{"columns": ["Compound", "Group label"],
 "data": [
  ["O=c1c2ccccc2[nH]c(=S)n1-c1ccc(/N=N/c2cccc3cc(O)ccc23)cc1", "inactive"],
  ["N#Cc1c(N)nc2c(C#N)c(N)cc3c2c1Oc1ccccc1-3", "inactive"],
  ["C=C1CC(C#N)(C#N)[C@@H]2CC3CCCC3[C@H]12.C=C1CC(C#N)(C#N)[C@H]2C3CCCC3C[C@@H]12 (some centres not stated)", "inactive"],
  ["O=C(NO)c1cccc(OCc2ccc(Br)cc2)c1", "inactive"],
  ["Cc1cc(C)c(C(=O)/C=C/c2ccccc2)c(C)c1", "inactive"],
  ["COc1ccc2[nH]c3c(C)c4ccnc(NCCCN(C)CCCNc5ccc6ncn7c8ccccc8c(=O)c5c67)c4c(C)c3c2c1", "active"],
  ["CCCCCCNC(=O)C1=C(C)NC(C)=C(C(=O)NCCCCCC)C1", "inactive"],
  ["CN(C)C(=S)SCC(N)=O", "inactive"]
]}

Enquiry: Please let me know the test result on file for CN(/N=C/c1cccc2cccnc12)c1ccc([N+](=O)[O-])cc1[N+](=O)[O-] .
Return: inactive

Enquiry: Further, for NC1CC(=O)c2cscc21 (configuration not stated) ?
Return: inactive

Enquiry: Further, for CCCSc1nc(COC(=O)NC)c(COC(=O)NC)n1C ?
Return: inactive

Enquiry: Further, for Cc1[nH]c2c(c1Cc1ccccc1)C1=NC=C(O)NN1C=N2 ?
Return: inactive

* * *

- System: RXF 393
- Test protocol: NCI tumour cell line growth inhibition, 48 h
Calls of active or inactive are those of the source. Cut-off read from the data, not from the text of the source: active = GI50 up to about 1.1 µM and inactive = higher.
Answer with one of the outcomes given here: active, inactive

Illustrative cases are given below, each with its answer.
{"columns": ["Compound", "Target of assay", "Group label"],
 "data": [
  ["O=C1O/C(=C(/Cl)c2cccc3ccccc23)c2ccccc21", "RXF 393", "inactive"],
  ["O=C1c2n[nH]nc2C(=O)c2n[nH]nc21", "RXF 393", "inactive"],
  ["COC(=O)C(=O)C(C(=O)OC)C(=O)C(=O)Nc1cc(Cl)c(Cl)cc1Cl (configuration not stated)", "RXF 393", "inactive"],
  ["Cc1ccc2c(O)cc(-c3ccccc3)nc2n1", "RXF 393", "active"],
  ["O=C(CSCC(=O)N/N=C/c1ccccc1)N/N=C\\c1ccccc1", "RXF 393", "inactive"],
  ["O=C1/C(=N/N=C(c2ccccc2)c2ccccc2)c2ccccc2-c2ccccc21", "RXF 393", "inactive"],
  ["O=C1c2cccc(NCCCNCCO)c2C(=O)c2cccc(NCCCNCCO)c21", "RXF 393", "inactive"],
  ["CN(C(=O)C1=CCCCCC1)c1ccccc1I", "RXF 393", "inactive"]
]}

Enquiry: Please let me know the test result on file for FC1CCN(C2(c3cccs3)CCCCC2)CC1 .
Return: inactive

Enquiry: Further, for COc1cc([C@@H]2c3cc4c(cc3[C@@H](NCc3ccccc3)C3COC(=O)[C@@H]32)OCO4)cc(OC)c1O (some centres not stated) ?
Return: inactive

Enquiry: Further, for CN(C)C(=S)SCC(N)=O ?
Return: inactive

Enquiry: Further, for Nc1ccc(C(=O)Nn2c(-c3ccccc3)nc3ccccc3c2=O)cc1 ?
Return: inactive

Enquiry: Further, for CCOC(=O)CCC(NC(=O)c1ccc(/N=C/c2nc3ccccc3nc2-c2ccccc2)cc1)C(=O)OCC (configuration not stated) ?
Return: inactive
